target: PARP1 WT (UniProt P09874 1-1014); experiment: fluorescence polarization
Sequence (P09874 whole entry): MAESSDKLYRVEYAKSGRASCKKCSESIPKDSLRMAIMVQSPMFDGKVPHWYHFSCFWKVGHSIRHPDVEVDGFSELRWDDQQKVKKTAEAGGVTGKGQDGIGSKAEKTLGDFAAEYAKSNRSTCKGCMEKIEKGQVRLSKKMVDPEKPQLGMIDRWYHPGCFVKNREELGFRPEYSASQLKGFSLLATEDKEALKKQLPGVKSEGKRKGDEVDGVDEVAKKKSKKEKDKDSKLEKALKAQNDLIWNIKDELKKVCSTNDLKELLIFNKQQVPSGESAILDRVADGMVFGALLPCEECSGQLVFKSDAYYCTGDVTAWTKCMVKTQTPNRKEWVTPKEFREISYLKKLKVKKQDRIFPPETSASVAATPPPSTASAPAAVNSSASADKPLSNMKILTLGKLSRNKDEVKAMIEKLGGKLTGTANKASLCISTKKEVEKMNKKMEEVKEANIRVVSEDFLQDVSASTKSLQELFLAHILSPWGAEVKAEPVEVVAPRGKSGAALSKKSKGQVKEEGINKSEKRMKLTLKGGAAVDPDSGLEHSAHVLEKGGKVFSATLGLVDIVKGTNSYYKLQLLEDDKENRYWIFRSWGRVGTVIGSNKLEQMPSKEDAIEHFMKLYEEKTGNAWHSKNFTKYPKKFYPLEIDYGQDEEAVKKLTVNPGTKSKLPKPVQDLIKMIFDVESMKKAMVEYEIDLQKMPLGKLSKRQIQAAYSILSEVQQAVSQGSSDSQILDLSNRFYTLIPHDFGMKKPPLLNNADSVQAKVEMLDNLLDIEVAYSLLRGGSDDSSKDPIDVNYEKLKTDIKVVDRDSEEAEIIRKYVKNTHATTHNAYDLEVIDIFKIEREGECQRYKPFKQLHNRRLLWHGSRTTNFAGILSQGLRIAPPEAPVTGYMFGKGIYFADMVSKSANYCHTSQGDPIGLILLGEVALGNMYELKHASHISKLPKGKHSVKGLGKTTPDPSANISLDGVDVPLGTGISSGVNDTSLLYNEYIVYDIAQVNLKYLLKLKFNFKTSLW
value.type: pKd
Answers are plain numbers, as −log10 of the molar value.

# return recorded pKd for input 18-bp DNA duplex (dsDNA) DNA 1: GGGTTGCGGCCGCTTGGG DNA 2: CCCAAGCGGCCGCAACCC
6.95
